Tested on: Tyrosine-protein phosphatase non-receptor type 7 (Homo sapiens), P35236 [P171C,V205C]
Sequence (P35236 whole entry P171C/V205C, the tested form may be a part): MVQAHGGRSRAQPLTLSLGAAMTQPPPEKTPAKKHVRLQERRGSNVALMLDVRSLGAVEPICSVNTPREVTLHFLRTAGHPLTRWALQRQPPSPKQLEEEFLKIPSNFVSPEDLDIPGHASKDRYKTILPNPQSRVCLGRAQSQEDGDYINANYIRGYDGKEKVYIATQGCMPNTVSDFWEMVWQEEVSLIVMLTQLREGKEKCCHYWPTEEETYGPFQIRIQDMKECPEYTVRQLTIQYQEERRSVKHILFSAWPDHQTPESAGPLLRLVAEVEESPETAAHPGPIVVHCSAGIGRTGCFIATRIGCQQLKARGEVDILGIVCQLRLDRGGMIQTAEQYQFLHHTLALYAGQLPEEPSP
TEST_DESCRIPTION: Inhibition of allosterically sensitized mutant form of His6-tagged human HePTP catalytic domain at 500 nM using pNPP as substrate incubated for 90 mins by quenched phosphatase activity assay
Active and inactive are the calls of the source. The rule behind the calls is not given here.
I would appreciate it if you answered using one of these outcomes: active, inactive

Ask: What did this assay record as the result for `CC1(C)C(/C=C/C=C2/N(CCCCS(=O)(=O)O)c3ccc([As]4SCCS4)cc3C2(C)C)=[N+](CCCCS(=O)(=O)O)c2ccc([As]3SCCS3)cc21` ?
Result: inactive

Ask: What did this assay record as the result for `O=C(O)c1ccccc1-c1c2ccc(=O)c([As]3SCCS3)c-2oc2c([As]3SCCS3)c(O)ccc12` ?
Result: active

Ask: What did this assay record as the result for `O=c1ccc2nc3ccc(O)c([As]4SCCS4)c3oc-2c1[As]1SCCS1` ?
Result: active

Ask: What did this assay record as the result for `CC1(C)C(/C=C/C=C/C=C2/N(CCCCS(=O)(=O)O)c3ccc([As]4SCCS4)cc3C2(C)C)=[N+](CCCCS(=O)(=O)O)c2ccc([As]3SCCS3)cc21` ?
Result: active
